Target: UniProt:P55212
Sequence (P55212 whole entry): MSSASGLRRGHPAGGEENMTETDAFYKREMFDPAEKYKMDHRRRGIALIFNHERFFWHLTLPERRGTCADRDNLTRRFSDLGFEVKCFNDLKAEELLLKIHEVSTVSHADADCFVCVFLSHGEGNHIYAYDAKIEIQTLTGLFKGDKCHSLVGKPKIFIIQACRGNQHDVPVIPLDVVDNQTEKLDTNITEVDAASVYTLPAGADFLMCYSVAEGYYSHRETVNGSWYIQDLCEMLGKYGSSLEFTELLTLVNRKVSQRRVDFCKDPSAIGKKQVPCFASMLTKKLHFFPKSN
Assay: Inhibitory concentration required against caspase-6
Each entry below carries its reported pIC50.
Would you please state pIC50, meaning minus log10 of the concentration in mol/L, as a bare number?

Example entries and their recorded answers appear below.
{"molecule": "CC(C)C[C@H](NC(=O)CSc1cccc2ccccc12)C(=O)N[C@H]1CC(=O)OC1O (some centres undefined)", "pIC50": 5.84}
{"molecule": "COc1ccc(OCC(=O)N[C@@H](CC(C)C)C(=O)N[C@H]2CC(=O)OC2O)c2ccccc12 (some centres undefined)", "pIC50": 4.65}
{"molecule": "CC(C)C[C@H](NC(=O)CCOc1cccc2ccccc12)C(=O)N[C@H]1CC(=O)OC1O (some centres undefined)", "pIC50": 6.52}
{"molecule": "CC(C)[C@@H](NC(=O)OCc1ccccc1)C(=O)C[C@H]1CC(=O)OC1O (some centres undefined)", "pIC50": 5.00}
{"molecule": "CC(C)C[C@@H](NC(=O)OCc1ccccc1)C(=O)C[C@H]1CC(=O)OC1O (some centres undefined)", "pIC50": 4.85}
{"molecule": "CC(C)C[C@H](NC(=O)COc1ccccc1OCc1ccccc1)C(=O)N[C@H]1CC(=O)OC1O (some centres undefined)", "pIC50": 5.01}

Attention now shifts to the item below.
Find the measured pIC50: item CC(C)C[C@H](NC(=O)COc1cccc2ccccc12)C(=O)N[C@H]1CC(=O)OC1O (some centres undefined) , target or system UniProt:P55212.
6.03

* * *

target: Caspase-7 (Homo sapiens); assay: Inhibitory concentration of compound required against Caspase-7 compared to acylated dipeptides
Sequence (P55210 24-198 limits assumed): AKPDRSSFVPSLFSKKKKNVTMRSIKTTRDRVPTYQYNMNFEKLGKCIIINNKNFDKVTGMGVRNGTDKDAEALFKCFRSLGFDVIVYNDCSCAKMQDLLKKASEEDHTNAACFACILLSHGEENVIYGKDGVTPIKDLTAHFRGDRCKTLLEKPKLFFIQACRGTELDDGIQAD
Sequence (P55210 207-303 limits assumed): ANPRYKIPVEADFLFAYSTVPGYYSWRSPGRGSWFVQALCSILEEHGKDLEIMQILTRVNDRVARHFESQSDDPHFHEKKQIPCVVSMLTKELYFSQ
Each entry below carries its reported IC50.
Provide only the numeric value, understood in nM.

Query: IC50; subject: CC(=O)N[C@@H](C(=O)O)C(=O)N[C@@H](CCC(=O)O)C(=O)N[C@H](C(=O)N[C@H]1CC(=O)OC1O)C(C)C (stereo not given in full)
10

Same again, this time with CC(C)C[C@H](NC(=O)[C@H](Cc1ccccc1)NC(=O)OCc1ccccc1)C(=O)N[C@H]1CC(=O)OC1O (stereo not given in full)
680

Same again, this time with CC(C)C[C@H](NC(=O)COc1ccc2ccccc2c1)C(=O)N[C@H]1CC(=O)OC1O (stereo not given in full)
8870

Same again, this time with CC(C)C[C@H](NC(=O)[C@H](CCC(=O)O)NC(=O)OCc1ccccc1)C(=O)N[C@H]1CC(=O)OC1O (stereo not given in full)
10

* * *

target: Caspase-6 (Homo sapiens); assay: Inhibitory concentration required against caspase-6
API: label(entry) gives 1 (yes) if the entry's IC50 is strictly smaller than 20 µM; on equality or larger values it gives 0 (no).

Use the examples below as a reference point.
{"molecule": "CC(C)C[C@H](NC(=O)COc1ccc(C2CCCC2)cc1)C(=O)N[C@H]1CC(=O)OC1O (some centres undefined)", "label": "0 (no)"}
{"molecule": "CC(C)C[C@H](NC(=O)COc1ccc(C23CC4CC(CC(C4)C2)C3)cc1)C(=O)N[C@H]1CC(=O)OC1O (some centres undefined)", "label": "0 (no)"}
{"molecule": "CC(C)C[C@H](NC(=O)CCSc1ccc2ccccc2c1)C(=O)N[C@H]1CC(=O)OC1O (some centres undefined)", "label": "1 (yes)"}
{"molecule": "CC(C)C[C@H](NC(=O)COc1cccc2cnccc12)C(=O)N[C@H]1CC(=O)OC1O (some centres undefined)", "label": "0 (no)"}

Is the reported IC50 for CC(C)C[C@H](NC(=O)COc1ccc2ccccc2c1)C(=O)N[C@H]1CC(=O)OC1O (some centres undefined) strictly below 20 µM?
1 (yes)

Same again, this time with CC(C)C[C@H](NC(=O)CCOc1ccccc1)C(=O)N[C@H]1CC(=O)OC1O (some centres undefined)
0 (no)

Same again, this time with CC(C)C[C@H](NC(=O)CCc1cccc2ccccc12)C(=O)N[C@H]1CC(=O)OC1O (some centres undefined)
1 (yes)

Same again, this time with CC(C)C[C@H](NC(=O)CC(=O)c1cccc2ccccc12)C(=O)N[C@H]1CC(=O)OC1O (some centres undefined)
1 (yes)
